Hey, just so you know, these numbers are from PubChem BioAssay (NCI).

# System: OVCAR-3 ovarian
# measurementDescription: NCI tumour cell line growth inhibition, 48 h; in the data active = GI50 below about 0.43 µM; inactive = the rest
Classes used: active, inactive

chemicalString | studyTarget | label
C/C(=N\NC(=O)c1cccc(S(=O)(=O)N2CCN(C)CC2)c1)c1cc(Cl)ccc1O | OVCAR-3 ovarian | active
CCCCCCCC(=O)SCC/C=C/[C@@H]1CC(=O)NCc2cccc(n2)C2=N[C@@](C)(CS2)C(=O)N[C@@H](C(C)C)C(=O)O1 | OVCAR-3 ovarian | active
C[C@]12CC/C(=N\O)C[C@@H]1CC[C@@H]1[C@@H]2CC[C@]2(C)/C(=N/O)CC[C@@H]12 | OVCAR-3 ovarian | inactive
O=c1ncc(I)c[nH]1 | OVCAR-3 ovarian | inactive
O=C(/C=C/c1ccccc1)Nc1ncc(Cc2ccccc2)s1 | OVCAR-3 ovarian | active
O=C(NCCN1CCOCC1)Nc1nc2ccc(Sc3nnc4ccc(-c5ccc(F)cc5)nn34)cc2s1 | OVCAR-3 ovarian | inactive
C=C(c1ccc(OC)c(/C=C/C(=O)c2cc(OC)c(OC)c(OC)c2)c1)c1cc(OC)c(OC)c(OC)c1 | OVCAR-3 ovarian | inactive
Nc1nc2ccccc2c2[nH]c3ccccc3c12 | OVCAR-3 ovarian | inactive
Cc1cc(C)nc(NS(=O)(=O)c2ccc(Nc3nc4nc(NCc5ccccc5)nc(-c5ccc(O)cc5)c4c(=O)[nH]3)cc2)n1 | OVCAR-3 ovarian | inactive
COc1ccc(NC(=O)COc2ccccc2)c(C(N)=O)c1 | OVCAR-3 ovarian | active
COc1ccc2c(c1)C(=O)c1c-2n(CCCCl)c(=O)c2cc([N+](=O)[O-])ccc12 | OVCAR-3 ovarian | inactive
COc1cc(-c2nn(-c3ccc(NC(=O)Nc4ccc(Cl)c(C(F)(F)F)c4)cc3)cc2-c2ccncc2)ccc1Cl | OVCAR-3 ovarian | inactive
